biological target: RAGE-Fc chimera protein (UniProt Q15109 23-342); assay: BLI; saturation
Sequence (Q15109 23-342, change not shown): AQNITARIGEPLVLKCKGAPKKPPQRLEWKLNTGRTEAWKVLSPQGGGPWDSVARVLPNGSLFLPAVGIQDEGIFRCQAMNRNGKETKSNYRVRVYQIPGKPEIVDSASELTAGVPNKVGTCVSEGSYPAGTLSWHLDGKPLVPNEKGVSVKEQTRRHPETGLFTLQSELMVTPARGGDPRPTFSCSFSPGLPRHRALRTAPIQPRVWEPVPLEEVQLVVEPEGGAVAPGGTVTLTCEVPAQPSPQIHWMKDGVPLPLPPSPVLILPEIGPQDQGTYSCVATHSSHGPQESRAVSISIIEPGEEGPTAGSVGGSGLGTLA
Measurement Kind: pKd
Bear in mind: pKd is minus log10 of a mol/L concentration; give just that figure.

Binder | pKd
DS-HMGB1 1–164 (domain or fragment, disulfide bond between C22 and C44) GKGDPKKPRGKMSSYAFFVQTCREEHKKKHPDASVNFSEFSKKCSERWKTMSAKEKGKFEDMAKADKARYEREMKTYIPPKGETKKKFKDPNAPKRPPSAFFLFCSEYRPKIKGEHPGLSIGDVAKKLGEMWNNTAADDKQPYEKKAAKLKEKYEKDIAAYRAK | 5.51
DS-HMGB1 1–184 (domain or fragment, disulfide bond between C22 and C44) GKGDPKKPRGKMSSYAFFVQTCREEHKKKHPDASVNFSEFSKKCSERWKTMSAKEKGKFEDMAKADKARYEREMKTYIPPKGETKKKFKDPNAPKRPPSAFFLFCSEYRPKIKGEHPGLSIGDVAKKLGEMWNNTAADDKQPYEKKAAKLKEKYEKDIAAYRAKGKPDAAKKGVVKAEKSKKKK | 6.30

Continue with the binder presented below.
Return the recorded pKd value; entry: DS-HMGB1 1–214 (natural protein, disulfide bond between C22 and C44) MGKGDPKKPRGKMSSYAFFVQTCREEHKKKHPDASVNFSEFSKKCSERWKTMSAKEKGKFEDMAKADKARYEREMKTYIPPKGETKKKFKDPNAPKRPPSAFFLFCSEYRPKIKGEHPGLSIGDVAKKLGEMWNNTAADDKQPYEKKAAKLKEKYEKDIAAYRAKGKPDAAKKGVVKAEKSKKKKEEEEDEEDEEDEEEEEDEEDEDEEEDDDDE 5.89
